Test system: BxPC-3 cells
Assay: MTT assay, BxPC-3
Type: cell-based
Conditions: Homo sapiens; BxPC-3, 24-h MTT, independent experiment 1; read-out: IC50(1)
Classify: True when IC50 is strictly less than 60 µM; False when IC50 is not.

Dear colleague, could you confirm whether IC50 of COC(=O)C[C@H](N[C@@H](c1ccccc1)c1c(O)ccc2ccccc12)C(=O)OC (mixture of isomers) [MMZ-147B] falls below 60 µM? Thanks. True

Dear colleague, could you confirm whether IC50 of COC(=O)[C@@H](N[C@@H](c1ccccc1)c1c(O)ccc2ccccc12)C(C)C (mixture of isomers) [MMZ-33D] falls below 60 µM? Thanks. True

Dear colleague, could you confirm whether IC50 of O=c1[nH]cc(F)c(=O)[nH]1 [5-Fluorouracil, reference compound] falls below 60 µM? Thanks. True

Dear colleague, could you confirm whether IC50 of COC(=O)[C@@H]1CCCN1[C@@H](c1ccccc1)c1c(O)ccc2ccccc12 (mixture of isomers) [MMZ-140C] falls below 60 µM? Thanks. True

Dear colleague, could you confirm whether IC50 of COC(=O)[C@H](CC(C)C)N[C@@H](c1ccccc1)c1c(O)ccc2ccccc12 (mixture of isomers) [MMZ-167C] falls below 60 µM? Thanks. False

Dear colleague, could you confirm whether IC50 of COC(=O)[C@H](Cc1ccccc1)N[C@@H](c1ccccc1)c1c(O)ccc2ccccc12 (mixture of isomers) [MMZ-45AA] falls below 60 µM? Thanks. True
